The origin of these recorded values is patent US20120231013A1.

assayed_target: MMP-13 (UniProt P45452 20-471, limits assumed)
test_protocol: cell-based or functional assay
// criterion not met strictly below 30% in Direct Inhibition of MMP13 (% decrease), 1000 nM; criterion met otherwise

{"columns": ["binder", "class"],
 "data": [
  ["LRP-1 peptide LA4-5 (peptide) CPSDRFKCENNRCIPNRWLCDGDNDCGNSEDESNATCSARTCPPNQFSCASGRCIPISWTCDLDDDCGDRSDESASCAYPT", "criterion not met"],
  ["LRP-1 peptide LA26-28 (peptide) CEPYQFRCKNNRCVPGRWQCDYDNDCGDNSDEESCTPRPCSESEFSCANGRCIAGRWKCDGDHDCADGSDEKDCTPRCDMDQFQCKSGHCIPLRWRCDADADCMDGSDEEACGTGVRT", "criterion met"],
  ["CGPSSFSCPGTHVCVPERWLCDGDKDCADGADESIAAGCLYNST (Tags implied (Ni-NTA, anti-HA detection), not described) [LRP-1 peptide LA17]", "criterion met"],
  ["CNASSQFLCSSGRCVAEALLCNGQDDCGDSSDERGCHINE [LRP-1 peptide LA20]", "criterion not met"],
  ["CLPSQFKCTNTNRCIPGIFRCNGQDNCGDGEDERDCPEVT [LRP-1 peptide LA23]", "criterion met"]
]}
